- test system: T1, hBCMA (human BCMA) (Homo sapiens, UniProt Q02223)
- T1 sequence (Q02223 1-184): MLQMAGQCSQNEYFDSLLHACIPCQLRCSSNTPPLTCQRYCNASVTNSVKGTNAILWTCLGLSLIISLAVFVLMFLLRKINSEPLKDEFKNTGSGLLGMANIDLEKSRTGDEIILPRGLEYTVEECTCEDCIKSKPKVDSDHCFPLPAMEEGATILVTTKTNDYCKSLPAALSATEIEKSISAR
- test details: Kinetics and affinity of hBCMA/human IgG interactions by SPR (Bio-Rad Proteon XPR36)
- Type: binding
- measurement conditions: huBCMA, 37° C.
endpoint: kd (1/s) huBCMA @37° C. (s⁻¹)

INSERT INTO assay_data (molecule, reported_result) VALUES
  ('L3.PY/L1.AH/H3.AE: anti-BCMA antibody (antibody, V domains shown) VH: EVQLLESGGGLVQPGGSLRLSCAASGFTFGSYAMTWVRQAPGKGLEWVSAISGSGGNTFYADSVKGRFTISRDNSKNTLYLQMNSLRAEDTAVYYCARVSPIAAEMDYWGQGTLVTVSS VL: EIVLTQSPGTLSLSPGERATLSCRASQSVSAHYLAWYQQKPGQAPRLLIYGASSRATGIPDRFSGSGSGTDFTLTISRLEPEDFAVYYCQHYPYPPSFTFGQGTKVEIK', 0.00173);
